Tested on: Jurkat cells
Assay: Raman microscopy cell penetration study of cryoprotectants
Assay type: cell-based
Conditions: Raman microscopy, at room temperature and at freezing temperatures
property: Penetration

smiles notation	Penetration
C[C@H](N)C(=O)O	Yes
OC[C@H]1O[C@@](CO)(O[C@H]2O[C@H](CO)[C@@H](O)[C@H](O)[C@H]2O)[C@@H](O)[C@@H]1O	Yes
OC[C@H]1O[C@H](O[C@H]2O[C@H](CO)[C@@H](O)[C@H](O)[C@H]2O)[C@H](O)[C@@H](O)[C@@H]1O	Semi*
OC[C@@H](O)[C@@H](O)[C@H](O)[C@@H](O)CO	Yes
CC1=NCC[C@@H](C(=O)O)N1	Yes

**Query** Find the recorded Penetration belonging to O=C(CO)[C@@H](O)[C@H](O)[C@H](O)CO and report it.
**Result** Yes

**Query** Recorded Penetration of O[C@H]1[C@H](O)[C@@H](O)[C@H](O)[C@@H](O)[C@H]1O , please.
**Result** Yes

**Query** Bench note: what Penetration did OC[C@@H](O)[C@@H](O)[C@H](O)[C@H](O)CO show?
**Result** Yes

**Query** Which Penetration is listed for OCC(O)CO ?
**Result** Yes

**Query** Name the reported Penetration value associated with the compound NCCS(=O)(=O)O
**Result** Yes

**Query** Can you share its Penetration? I mean this compound: OC[C@@H](O)[C@H](O)[C@@H](O)CO
**Result** Yes

**Query** Using the record for CC(C)[C@H](N)C(=O)O , report its Penetration.
**Result** Yes

**Query** Entry O=C(O)[C@@H]1CCCN1 has what Penetration?
**Result** Yes

**Query** // lookup Penetration for OCCO
**Result** Yes
